# Read-out: BCL2L11 (gene 10018)
# ASSAY_DETAILS: LTEA_HepaRG_BCL2L11: Life Technologies and Expression Analysis (LTEA) Assay for Bcl-2 (BCL2L11) gene using HepaRG (AID 2283473)
# EXPERIMENTAL_CONDITIONS: mRNA level, 48 h; actives raise or lower the signal
Activity calls are given as the source filed them. The calls were made as follows: active = hit-call score of the fitted dose curve at least 0.9, where 1 is the maximum; inactive = score below 0.9.
Lab note: assign the record to one of yes (1) = active, no (0) = inactive

Example cases with answers are listed next.
CCCCCCCCCCO: no (0)
Cc1c(C(=O)O)c(O)cc2c1C(=O)c1c(O)c([C@@H]3O[C@H](CO)[C@@H](O)[C@H](O)[C@H]3O)c(O)c(O)c1C2=O: no (0)
COc1ccc(S(=O)(=O)N2C(=O)[C@@](c3ccccc3OC)(N3C[C@H](O)C[C@H]3C(=O)N(C)C)c3cc(Cl)ccc32)c(OC)c1: yes (1)
Cc1ccc(N(C)C)cc1: no (0)
CC1(C)NC(=O)NC1=O: no (0)
Cc1ccc2ncccc2c1: no (0)
Cc1ccc(C)c(C)c1: no (0)
NCC1(Cc2noc(=O)[nH]2)CCCCC1: no (0)
Cc1cccc(C)c1O: no (0)
Nc1ccc2c(c1)C(=O)c1ccccc1C2=O: no (0)

Q: Test call, this molecule: COCCOCCOC
Ans: no (0)

Q: Outcome? C1CCC(SSC2CCCCC2)CC1
Ans: no (0)

Q: Can you look up the reported call for CCCCCCC(=O)OCC for me?
Ans: no (0)

Q: Any idea what this test logged for CC=Cc1ccc(O)c(OC)c1 ?
Ans: no (0)

----------
# ASSAY_DETAILS: ATG_E_Box_CIS: Attagene CIS-FACTORIAL HepG2 Assay for human Enhancer Box (E-box) (AID 2282936)
# EXPERIMENTAL_CONDITIONS: HepG2 E-box cis-reporter transcription, actives raise or lower the signal
Active and inactive are the calls of the source. How the source made its calls: active means hit-call score of the fitted dose curve at least 0.9, where 1 is the maximum; inactive means score below 0.9.
Log the outcome using a class from label 1 = active, label 0 = inactive

OC[C@@H](O)[C@@H](O)[C@H](O)[C@H](O)CO: label 0
CCNc1cccc(C)c1: label 0
CC1=C(/C=C/C(C)=C/C=C/C(C)=C/CO)C(C)(C)CCC1: label 0
CCCCOC(=O)CCCCCCCCC(=O)OCCCC: label 1

Q: What call does the record list for CCCCCCCCCCCCCCCC ?
Ans: label 0

Q: What was the test verdict on Cc1ccc(N(C)C)cc1 ?
Ans: label 0

----------
# TGT: human Dopamine Receptor D2 (DRD2), DRD2 (gene 1813)
# ASSAY_DETAILS: NVS_GPCR_hDRD2s: NovaScreen (NVS) G Protein-Coupled Receptor Assay for human Dopamine Receptor D2 (DRD2) (AID 2283266)
Results filed as inconclusive are left out. The source made the active and inactive calls. How the source made its calls: active means hit-call score of the fitted dose curve at least 0.9, where 1 is the maximum; inconclusive means response in the unintended direction; inactive means score below 0.9.
API: response.call in active, inactive

Oc1ccc2c(c1)OC[C@@H](N1CCC(O)(c3ccc(F)cc3)CC1)[C@H]2O: inactive

Q: Write down the call the test reported for this compound. Item: CCOC(=O)CCC(=O)OCC
Ans: inactive

Q: What did this assay record as the result for Cc1nc(-c2ccc3c(c2)CCN(CCC2CCC(NC(=O)/C=C/c4ccc(F)cc4)CC2)CC3)no1 (centres undefined) ?
Ans: inactive

Q: Please share the test call associated with Nc1nc(N)c2nc(CNc3ccc(C(=O)N[C@@H](CCC(=O)O)C(=O)O)cc3)cnc2n1 .
Ans: active
